Where these numbers come from: patent US20260242478A1

target: T1, PSMA Fab; assay: phage ELISA, biotinylated PSMA Fab on neutravidin plate pre-incubated with PSMA antigen as competitor, anti-M13-HRP
T1 construct: also called Anti-PSMA Fab; 006 PSMA Fab
Some binders, each annotated with its measured Phage binding ELISA signal, Anti-PSMA Fab with PSMA antigen.
// keep it numeric: no unit symbol after the value

Past entries and their recorded results:
binder	reported.measurement
ASMWCIPPWMCAED [Phage-2395]	0.085
WVKWCTPPWMCEWD [Phage-2389]	0.123
LEKWCRPAWMCNGM [Phage-2393]	0.0594
EVKWCIPEWMCMVV [Phage-2396]	0.0647
WEKWCTPAWMCAVA [Phage-2399]	0.0716
FPKWCTPSWMCDFV [Phage-2391]	0.0984

Summary for this binder, VVKWCTPAWMCELQ [Phage-2397] : Phage binding ELISA signal, Anti-PSMA Fab with PSMA antigen is 0.0757

Summary for this binder, VMKWCTPEWMCQVF [Phage-2402] : Phage binding ELISA signal, Anti-PSMA Fab with PSMA antigen is 0.0622

Summary for this binder, SPKWCTPSWMCELQ [Phage-2392] : Phage binding ELISA signal, Anti-PSMA Fab with PSMA antigen is 0.06
